Hello, the source for this data is patent US20220056125A1, in case you need it.

Molecular target: T1, human PAR-2 (human, UniProt P55085 26-397)
T1 sequence: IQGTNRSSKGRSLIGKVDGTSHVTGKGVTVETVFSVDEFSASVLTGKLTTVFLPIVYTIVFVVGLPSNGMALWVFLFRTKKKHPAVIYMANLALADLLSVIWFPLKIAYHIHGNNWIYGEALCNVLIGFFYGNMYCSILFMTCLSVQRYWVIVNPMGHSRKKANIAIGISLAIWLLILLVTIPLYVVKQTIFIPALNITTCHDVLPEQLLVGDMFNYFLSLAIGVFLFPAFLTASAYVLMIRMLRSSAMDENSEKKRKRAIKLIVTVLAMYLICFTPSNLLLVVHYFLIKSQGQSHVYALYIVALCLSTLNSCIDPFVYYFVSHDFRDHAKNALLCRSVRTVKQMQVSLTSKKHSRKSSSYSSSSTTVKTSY
Assay: cell-based or functional assay
reportedProperty: PAR-2 β-arrestin cell based assay IC50, 2 µM SLIGKV (nM)
Express it in nM; write the number only.

Examples with answers:
>  <binder>
P24E972 (antibody, human IgG4 S228P, kappa, V domains shown) VH: QVQLVQSGAEVKKPGSSVKVSCKASGFSLSSYAISWVRQAPGQGLEWMGVIWGNGNVYYAQKFQGRVTITADESTSTAYMELSSLRSEDTAVYYCARWKGYKDYPFDYWGQGTLVTVSS VL: EIVLTQSPATLSLSPGERATLSCRASQNVYKWLDWYQQKPGQAPRLLIYNAYSRATGIPARFSGSGSGRDFTLTISSLEPEDFAVYYCQQHHHGWTFGGGTKVEIKR

>  <measuredNumber>
1.52

$$$$
>  <binder>
P24E292 (antibody, human IgG4 S228P, kappa, V domains shown) VH: QVQLVQSGAEVKKPGSSVKVSCKASGFSLNSYGIIWVRQAPGQGLEWMGVIWGNGNTYYAQKFQGRVTITADESTSTAYMELSSLRSEDTAVYYCARWRGYKDYPFDYWGQGTLVTVSS VL: EIVLTQSPATLSLSPGERATLSCKASQNIYKYLDWYQQKPGQAPRLLIYNTNSRATGIPARFSGSGSGRDFTLTISSLEPEDFAVYYCLQHNSGWTFGGGTKVEIKR

>  <measuredNumber>
1.2

$$$$
>  <binder>
P24E936 (antibody, human IgG4 S228P, kappa, V domains shown) VH: QVQLVQSGAEVKKPGSSVKVSCKASGFSLSSYAISWVRQAPGQGLEWMGVIWGNGNVYYAQKFQGRVTITADESTSTAYMELSSLRSEDTAVYYCARWKGYKDHPFDYWGQGTLVTVSS VL: EIVLTQSPATLSLSPGERATLSCRASQNVYKWLDWYQQKPGQAPRLLIYNAYSRATGIPARFSGSGSGRDFTLTISSLEPEDFAVYYCQQHGHGWTFGGGTKVEIKR

>  <measuredNumber>
1.8

$$$$

[ask] Name the reported PAR-2 β-arrestin cell based assay IC50, 2 µM SLIGKV value associated with the binder P24E921 (antibody, human IgG4 S228P, kappa, V domains shown) VH: QVQLVQSGAEVKKPGSSVKVSCKASGFSLSSYAISWVRQAPGQGLEWMGVIWGNGNTYYAQKFQGRVTITADESTSTAYMELSSLRSEDTAVYYCARWRGFKDYPFDYWGQGTLVTVSS VL: EIVLTQSPATLSLSPGERATLSCKASQNVYKWLDWYQQKPGQAPRLLIYNAYSLATGIPARFSGSGSGRDFTLTISSLEPEDFAVYYCQQHGSGWTFGGGTKVEIKR
[reply] 1.9

[ask] Any idea what its PAR-2 β-arrestin cell based assay IC50, 2 µM SLIGKV is? The binder is P24E918 (antibody, human IgG4 S228P, kappa, V domains shown) VH: QVQLVQSGAEVKKPGSSVKVSCKASGFSLSSYAISWVRQAPGQGLEWMGVIWGNGNTYYAQKFQGRVTITADESTSTAYMELSSLRSEDTAVYYCARWRGFKDYPFDYWGQGTLVTVSS VL: EIVLTQSPATLSLSPGERATLSCRASQNIYKWLDWYQQKPGQAPRLLIYNAYSLATGIPARFSGSGSGRDFTLTISSLEPEDFAVYYCQQHNSGWTFGGGTKVEIKR
[reply] 1.18
